system: 922993-354-T-J3-PDC complex spheroids, viability; experiment: Anticancer human tumor 922993-354-T-J3-PDC patient-derived endometrial carcinoma cell line growth inhibition [GQUAD]; details: second compound 0.316 µM; first compound 0.316 µM; stronger effect = lower value
Observation Type: viability, T/C (%)
// return numeric value only (unit: %, not printed)

Before answering, review these 2 worked examples.
- Nc1ccn(C2OC(CO)C(O)C2(F)F)c(=O)n1 (stereo not drawn) + Cc1cnc(CNC(=O)c2c(=O)c3ccc(N4CCCN(C)CC4)nc3n3c2sc2ccccc23)cn1: 30.5
- O=C(c1cc(Cc2n[nH]c(=O)c3ccccc23)ccc1F)N1CCN(C(=O)C2CC2)CC1 + CN(C)c1ccc(Nc2c3ccc(NC(=O)CCN4CCCC4)cc3nc3cc(NC(=O)CCN4CCCC4)ccc23)cc1: 115

# next compound below
Q: Returns the measured viability, T/C for the input compound. Input: O=C(NO)c1cnc(N2CCN(S(=O)(=O)c3ccc4ccccc4c3)CC2)nc1 + Cc1cnc(CNC(=O)c2c(=O)c3ccc(N4CCCN(C)CC4)nc3n3c2sc2ccccc23)cn1
Result: 36.2

* * *

tested on: 922993-354-T-J3-PDC complex spheroids, viability; experiment: Anticancer human tumor 922993-354-T-J3-PDC cell line growth inhibition [GQUAD]; details: second compound 0.0316 µM; first compound 0.316 µM; stronger effect = lower value;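 note: spheroids exposed to compounds for seven days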;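 for viability, T/C: 100% = DMSO vehicle control viability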
# note: boundary value 80% maps to Condition not met; viability, T/C below it maps to Condition met

Please review the entries below; each comes with its answer.
• O=C(c1cc(Cc2n[nH]c(=O)c3ccccc23)ccc1F)N1CCN(C(=O)C2CC2)CC1 + Cc1[nH]c2ccc(F)cc2c1-c1nc2c3cccnc3c3ncccc3c2[nH]1 = Condition not met
• Cn1ncnc1[C@H]1c2n[nH]c(=O)c3cc(F)cc(c23)N[C@@H]1c1ccc(F)cc1 + Cc1[nH]c2ccc(F)cc2c1-c1nc2c3cccnc3c3ncccc3c2[nH]1 = Condition met
• COc1cc(C2c3cc4c(cc3C(OC3OC5COC(C)OC5C(O)C3O)C3COC(=O)C23)OCO4)cc(OC)c1O (stereo not given) + CN(C)c1ccc(Nc2c3ccc(NC(=O)CCN4CCCC4)cc3nc3cc(NC(=O)CCN4CCCC4)ccc23)cc1 = Condition not met

Below: the item to evaluate.
Q: Lab note: viability, T/C threshold 80%. Does this compound come in strictly under it? CC(=O)O[C@H]1C(=O)[C@@]2(C)[C@H]([C@H](OC(=O)c3ccccc3)[C@]3(O)C[C@H](OC(=O)[C@H](O)[C@@H](NC(=O)c4ccccc4)c4ccccc4)C(C)=C1C3(C)C)[C@]1(OC(C)=O)CO[C@@H]1C[C@@H]2O + CN(C)c1ccc(Nc2c3ccc(NC(=O)CCN4CCCC4)cc3nc3cc(NC(=O)CCN4CCCC4)ccc23)cc1
Result: Condition not met

* * *

Test system: 922993-354-T-J3-PDC complex spheroids, viability
Assay: Anticancer human tumor 922993-354-T-J3-PDC cell line growth inhibition [GQUAD];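 note: spheroids exposed to compounds for seven days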;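 for viability, T/C: 100% = DMSO vehicle control viability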
Conditions: second compound 1 µM; first compound 0.0999 µM; stronger effect = lower value
From the text: DNA G-quadruplex Stabilizer Agents in Combinations in Complex Spheroids A high-throughput screen of multi-cell type tumor spheroids was designed to identify active combinations of DNA G-quadruplex stabilizer agents and targeted small molecules. […] Compounds. […] If the clinical Cmax for an agent had not been determined, the highest concentration tested was 10 microM. […]
# viability, T/C annotations
// return numeric value only (unit: %, not printed)

Before answering, review these 3 worked examples.
• Cn1ncnc1[C@H]1c2n[nH]c(=O)c3cc(F)cc(c23)N[C@@H]1c1ccc(F)cc1 + Cc1[nH]c2ccc(F)cc2c1-c1nc2c3cccnc3c3ncccc3c2[nH]1 = 93.3
• Cc1[nH]c2ccccc2c1CCNCc1ccc(/C=C/C(=O)NO)cc1 + Cc1[nH]c2ccc(F)cc2c1-c1nc2c3cccnc3c3ncccc3c2[nH]1 = 100
• CCc1c2c(nc3ccc(O)cc13)-c1cc3c(c(=O)n1C2)COC(=O)[C@]3(O)CC + Cc1cnc(CNC(=O)c2c(=O)c3ccc(N4CCCN(C)CC4)nc3n3c2sc2ccccc23)cn1 = 42.1

# next compound below
Q: Returns the measured viability, T/C for the input compound. Input: Cn1ncnc1[C@H]1c2n[nH]c(=O)c3cc(F)cc(c23)N[C@@H]1c1ccc(F)cc1 + Cc1cnc(CNC(=O)c2c(=O)c3ccc(N4CCCN(C)CC4)nc3n3c2sc2ccccc23)cn1
Result: 50.3

* * *

# pIC50 annotations
system: 922993-354-T-J3-PDC complex spheroids, viability; experiment: Anticancer human tumor 922993-354-T-J3-PDC cell line growth inhibition [GQUAD]; conditions: curve of first compound; second compound 1 µM;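 note: spheroids exposed to compounds for seven days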
pIC50: −log10 of the molar value.

* C=CCn1c(=O)c2cnc(Nc3ccc(N4CCN(C)CC4)cc3)nc2n1-c1cccc(C(C)(C)O)n1 + Cc1[nH]c2ccc(F)cc2c1-c1nc2c3cccnc3c3ncccc3c2[nH]1 | 5.26
* Cc1cccc(N(C)C(=O)C2C(O)CCN2c2nc(C)cc(C(F)(F)F)c2C#N)c1 (stereo not given) + Cc1cnc(CNC(=O)c2c(=O)c3ccc(N4CCCN(C)CC4)nc3n3c2sc2ccccc23)cn1 | < 5.00
* COc1ncnc(C2CC2)c1-c1ncc2cnn(Cc3ccc(-c4nc(C(F)(F)F)cn4C(C)C)cc3)c2n1 + CN(C)c1ccc(Nc2c3ccc(NC(=O)CCN4CCCC4)cc3nc3cc(NC(=O)CCN4CCCC4)ccc23)cc1 | < 5.00

Q: Fill in the recorded pIC50 for this molecule, with 922993-354-T-J3-PDC complex spheroids, viability as test system: C=CC(=O)N1CCN(c2nc(=O)n(-c3c(C)ccnc3C(C)C)c3nc(-c4c(O)cccc4F)c(F)cc23)C(C)C1 (stereo not given) + Cc1cnc(CNC(=O)c2c(=O)c3ccc(N4CCCN(C)CC4)nc3n3c2sc2ccccc23)cn1
Result: < 5.00

Q: Fill in the recorded pIC50 for this molecule, with 922993-354-T-J3-PDC complex spheroids, viability as test system: Cc1[nH]c2ccccc2c1CCNCc1ccc(/C=C/C(=O)NO)cc1 + CN(C)c1ccc(Nc2c3ccc(NC(=O)CCN4CCCC4)cc3nc3cc(NC(=O)CCN4CCCC4)ccc23)cc1
Result: < 6.50

Q: Fill in the recorded pIC50 for this molecule, with 922993-354-T-J3-PDC complex spheroids, viability as test system: O=C(c1cc(Cc2n[nH]c(=O)c3ccccc23)ccc1F)N1CCN(C(=O)C2CC2)CC1 + Cc1cnc(CNC(=O)c2c(=O)c3ccc(N4CCCN(C)CC4)nc3n3c2sc2ccccc23)cn1
Result: > 7.50

Q: Fill in the recorded pIC50 for this molecule, with 922993-354-T-J3-PDC complex spheroids, viability as test system: CC(C)(O)C1CCC(Nc2ccc3ncc(-c4cccc(C(F)(F)F)c4)n3n2)CC1 (stereo not given) + Cc1[nH]c2ccc(F)cc2c1-c1nc2c3cccnc3c3ncccc3c2[nH]1
Result: < 5.00

Q: Fill in the recorded pIC50 for this molecule, with 922993-354-T-J3-PDC complex spheroids, viability as test system: O=C(NO)c1cnc(N2CCN(S(=O)(=O)c3ccc4ccccc4c3)CC2)nc1 + CN(C)c1ccc(Nc2c3ccc(NC(=O)CCN4CCCC4)cc3nc3cc(NC(=O)CCN4CCCC4)ccc23)cc1
Result: 6.35

Q: Fill in the recorded pIC50 for this molecule, with 922993-354-T-J3-PDC complex spheroids, viability as test system: C#Cc1c(F)ccc2cc(O)cc(-c3ncc4c(N5CC6CCC(C5)N6)nc(OCC56CCCN5CC(F)C6)nc4c3F)c12 (stereo not given) + CN(C)c1ccc(Nc2c3ccc(NC(=O)CCN4CCCC4)cc3nc3cc(NC(=O)CCN4CCCC4)ccc23)cc1
Result: < 5.00

Q: Fill in the recorded pIC50 for this molecule, with 922993-354-T-J3-PDC complex spheroids, viability as test system: COc1cc(C2c3cc4c(cc3C(OC3OC5COC(C)OC5C(O)C3O)C3COC(=O)C23)OCO4)cc(OC)c1O (stereo not given) + CN(C)c1ccc(Nc2c3ccc(NC(=O)CCN4CCCC4)cc3nc3cc(NC(=O)CCN4CCCC4)ccc23)cc1
Result: 5.05

* * *

test system: 922993-354-T-J3-PDC complex spheroids, viability; test: Anticancer human tumor 922993-354-T-J3-PDC cell line growth inhibition [GQUAD]; conditions: second compound 0.1 µM; first compound 0.316 µM; stronger effect = lower value;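 note: spheroids exposed to compounds for seven days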;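 for viability, T/C: 100% = DMSO vehicle control viability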
Observation Type: viability, T/C (%)
// return numeric value only (unit: %, not printed)

Before answering, review these 2 worked examples.
- O=C(c1cc(Cc2n[nH]c(=O)c3ccccc23)ccc1F)N1CCN(C(=O)C2CC2)CC1 + Cc1[nH]c2ccc(F)cc2c1-c1nc2c3cccnc3c3ncccc3c2[nH]1: 88.3
- COc1cc(C2c3cc4c(cc3C(OC3OC5COC(C)OC5C(O)C3O)C3COC(=O)C23)OCO4)cc(OC)c1O (stereo not drawn) + Cc1cnc(CNC(=O)c2c(=O)c3ccc(N4CCCN(C)CC4)nc3n3c2sc2ccccc23)cn1: 53.8

# next compound below
Q: Fill in the recorded viability, T/C for this compound, with 922993-354-T-J3-PDC complex spheroids, viability as test system: CC1COCCN1c1cc(C2(S(C)(=N)=O)CC2)nc(-c2ccnc3[nH]ccc23)n1 (stereo not drawn) + Cc1cnc(CNC(=O)c2c(=O)c3ccc(N4CCCN(C)CC4)nc3n3c2sc2ccccc23)cn1
Result: 55.2
